- targetUnderTest: SIRT1 (Homo sapiens)
- Construct: His-tag (N); made in house; host or cells: E. coli BL21(DE3), T7-promoter vector
- protocolDescription: Mass spectrometry based assay for modulators of SIRT1 activity (deacetylation of p53-based acetylated peptide)
- Type: biochemical
- studyConditions: percent maximum fold activation of SIRT1
readoutKind: Emax

Requested read-out: Emax. Entry: O=C(Nc1cccc(CN2CCOCC2)n1)c1cccn2cc(-c3cc(F)cc(F)c3)nc12
> 200%

Try O=C(Nc1ccccn1)c1cccn2cc(-c3cccc(CN4CCCC4)c3)nc12 next.
> 200%

Try O=C(Nc1ccccn1)c1cccn2cc(-c3ccc(CN4CCOCC4)cc3)nc12 next.
> 200%

Try O=C(Nc1nccs1)c1nccn2cc(-c3ccc(F)cc3C(F)(F)F)nc12 next.
> 200%

Try O=C(Nc1nc(CN2CCOCC2)cs1)c1cccn2cc(-c3cccc(C(F)(F)F)c3)nc12 next.
> 200%

Try O=C(Nc1nc(CN2CCOCC2)cs1)c1cccn2cc(-c3cc(F)cc(F)c3)nc12 next.
> 200%

Try O=C(Nc1nc(CN2CCOCC2)cs1)c1cccn2nc(-c3cccc(C(F)(F)F)c3)nc12 next.
> 200%

Try O=C(Nc1cccc(CN2CCOCC2)n1)c1cccn2cc(-c3cccc(C(F)F)c3)nc12 next.
> 200%

Try Cc1ccc(-c2nc3c(C(=O)Nc4cccc(CN5CCOCC5)n4)cccn3n2)cn1 next.
> 200%

Try O=C(Nc1nc(CN2CCOCC2)cs1)c1nccn2cc(-c3ccc(F)cc3C(F)(F)F)nc12 next.
> 200%

Try O=C(Nc1nccs1)c1cccn2nc(-c3ccc(N4CCOCC4)cc3C(F)(F)F)nc12 next.
> 200%

Try Cc1ncccc1-c1nc2c(C(=O)Nc3nc(CN4CCOCC4)cs3)cccn2n1 next.
< 200%

Try O=C(Nc1ccccn1)c1cccn2nc(-c3ccc(OC[C@@H](O)CO)cc3C(F)F)nc12 next.
> 200%

Try O=C(Nc1nccs1)c1cccn2cc(-c3ccccc3F)nc12 next.
< 200%

Try O=C(Nc1cccn2cc(-c3ccccc3)nc12)c1cccc(N2CCCC2)c1 next.
< 200%

Try O=C(Nc1cccc(CN2CCOCC2)n1)c1nccn2cc(-c3ccccc3C(F)(F)F)nc12 next.
> 200%

Try O=C(Nc1ccncn1)c1nccn2cc(-c3ccc(F)cc3C(F)(F)F)nc12 next.
> 200%

* * *

- targetUnderTest: SIRT1 (Homo sapiens)
- Construct: His-tag (N); made in house; host or cells: E. coli BL21(DE3), T7-promoter vector
- Sequence (Q96EB6 1-747): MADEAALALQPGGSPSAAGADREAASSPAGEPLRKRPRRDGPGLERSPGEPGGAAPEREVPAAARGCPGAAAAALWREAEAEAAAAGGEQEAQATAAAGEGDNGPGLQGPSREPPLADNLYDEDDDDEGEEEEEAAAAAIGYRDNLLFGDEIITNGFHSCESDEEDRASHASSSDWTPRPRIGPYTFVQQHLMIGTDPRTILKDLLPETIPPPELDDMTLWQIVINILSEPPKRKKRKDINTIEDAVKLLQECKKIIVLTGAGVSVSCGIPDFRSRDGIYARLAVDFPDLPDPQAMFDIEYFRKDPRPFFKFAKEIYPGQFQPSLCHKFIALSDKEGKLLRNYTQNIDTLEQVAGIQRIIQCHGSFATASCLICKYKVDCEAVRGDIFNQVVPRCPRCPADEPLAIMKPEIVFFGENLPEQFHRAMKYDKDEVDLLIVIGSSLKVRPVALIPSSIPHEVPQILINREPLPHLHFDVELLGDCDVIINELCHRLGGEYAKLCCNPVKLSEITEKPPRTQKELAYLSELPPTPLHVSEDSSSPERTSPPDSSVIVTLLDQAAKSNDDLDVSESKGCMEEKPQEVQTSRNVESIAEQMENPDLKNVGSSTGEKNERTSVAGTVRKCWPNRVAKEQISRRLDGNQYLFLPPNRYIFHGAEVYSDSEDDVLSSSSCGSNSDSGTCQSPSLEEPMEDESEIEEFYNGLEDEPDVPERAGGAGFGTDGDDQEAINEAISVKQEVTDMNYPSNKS
- protocolDescription: Mass spectrometry based assay for modulators of SIRT1 activity (deacetylation of p53-based acetylated peptide)
- Assay type: biochemical
- studyConditions: concentration of test compound that results in 150% activation of SIRT1; 0.5 μM peptide substrate, 120 μM βNAD+, 10 nM SIRT1, 25 min, 25° C.
readoutKind: EC1.5

Use these answered entries as a reference point.
{"columns": ["compound", "EC1.5"],
 "data": [
  ["Cc1cnc(NC(=O)c2nccn3cc(-c4ccccc4OC(F)(F)F)nc23)s1 [Compound 187]", "B (EC1.5 1-25 uM)"],
  ["O=C(Nc1cccc(CN2CCOCC2)n1)c1cccn2cc(-c3cccc(C(F)F)c3)nc12 [Compound 209]", "A (EC1.5<1.0 uM)"],
  ["O=C(Nc1nccs1)c1cccn2cc(-c3ccccc3)nc12 [Compound 106]", "B (EC1.5 1-25 uM)"],
  ["O=C(Nc1cccc(CN2CCOCC2)n1)c1cccn2nc(-c3cccc(OC(F)(F)F)c3)nc12 [Compound 180]", "B (EC1.5 1-25 uM)"],
  ["O=C(Nc1nc(CN2CCOCC2)cs1)c1cccn2cc(-c3cc(F)c(F)c(F)c3)nc12 [Compound 196]", "B (EC1.5 1-25 uM)"]
]}

Requested read-out: EC1.5. Entry: O=C(Nc1cccn2cc(-c3cccc(OC(F)(F)F)c3)nc12)c1cnccn1 [Compound 105]
C (EC1.5>25 uM)

Try Cc1ncccc1-c1nc2c(C(=O)Nc3ccccn3)cccn2n1 [Compound 240] next.
C (EC1.5>25 uM)

Try Cc1cnc(NC(=O)c2nccn3cc(-c4ccc(F)cc4C(F)(F)F)nc23)s1 [Compound 190] next.
A (EC1.5<1.0 uM)
